- Test system: TTR (gene 7276)
- assay-procedure: CCTE_GLTED_hTTR_0.125uM: CCTE's human Transthyretin (hTTR) Inhibition Assay, with 0.125uM TTR, Great Lakes Toxicology and Ecology Division (GLTED) Lab (AID 2284431);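 also: hits lower the fluorescence signal relative to DMSO baseline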
Calls of active or inactive are those of the source. The calls were made as follows: active = hit-call score of the fitted dose curve at least 0.9, where 1 is the maximum; inactive = score below 0.9.
Labels: y for active, n for inactive

>>> df
                                   compound    tested_target  class_name
0                       C=CCc1ccc(O)c(OC)c1  TTR (gene 7276)           y
1  CCCCC(CC)COC(=O)CC(C(=O)OCC(CC)CCCC)S(=O)(=O)O (stereo not given)  TTR (gene 7276)           y
2  C[C@]12C=CC(=O)C=C1CC[C@@H]1[C@@H]2C(=O)C[C@@]2(C)[C@H]1CC[C@]2(O)C(=O)CO  TTR (gene 7276)           n
3  COc1ccc2c(c1)c(CC(=O)O)c(C)n2C(=O)c1ccc(Cl)cc1  TTR (gene 7276)           y
4                Oc1ccc2ccccc2c1N=Nc1ccccc1  TTR (gene 7276)           y

====

- Read-out: Interleukin 6 (IL6), IL6 (gene 3569)
- assay-procedure: LTEA_HepaRG_IL6: Life Technologies and Expression Analysis (LTEA) Assay for Interleukin 6 (IL6) using HepaRG (AID 2283509)
- assay-conditions: mRNA level, 48 h; actives raise or lower the signal
Calls of active or inactive are those of the source. How the source made its calls: active means hit-call score of the fitted dose curve at least 0.9, where 1 is the maximum; inactive means score below 0.9.
outcome-measure: AC50

                                  cpd_smiles     readout_value
 0  NC(=O)Cn1c(=O)cc(CCN2CCN(c3nccc4sccc34)CC2)c2ccc(F)cc21          inactive
 1                             Cc1cccc(C)c1O          inactive
 2  Oc1ccc2c(c1)OC[C@@H](N1CCC(O)(c3ccc(F)cc3)CC1)[C@H]2O          inactive
 3                            CCCCCCCCCCCCCO          inactive
 4                           Cc1ccc2ncccc2c1          inactive
 5                               Cc1ccccc1Cl          inactive
 6            CC(C)(C)c1cc(O)c(C(C)(C)C)cc1O  75.7 µM (active)
 7                Oc1ccc2ccccc2c1N=Nc1ccccc1          inactive
 8              C=CCOC(=O)c1ccccc1C(=O)OCC=C          inactive
 9                            CCCCCCC(=O)OCC          inactive
10                       C=CCc1ccc(O)c(OC)c1          inactive
11                        CCCCCCCCCCCC(=O)OC          inactive
12                          O=C(O)CCCCC(=O)O          inactive
13       Cc1cccc(Nc2cc(Cl)nc(SCC(=O)O)n2)c1C          inactive

====

- Read-out: Apoptosis regulator Bcl-2 (Homo sapiens)
- assay-procedure: LTEA_HepaRG_BCL2: Life Technologies and Expression Analysis (LTEA) Assay for Bcl-2 gene using HepaRG (AID 2283475);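 also: BCL2 transcript by TaqMan qRT-PCR normalised to ACTB GAPDH and POLR2A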
- assay-conditions: mRNA level, 48 h; actives raise or lower the signal
- Description: LTEA_HepaRG is a cell based, multiplexed-readout assay that uses HepaRG, a human liver cell line, with measurements taken at 48 hours after chemical dosing on a 96-well plate.LTEA_HepaRG_BCL2 is one of 102 assay component(s) measured in the LTEA HepaRG cell culture assay. It is a marker of Cell proliferation, survival, death.Data from the assay component LTEA_HepaRG_BCL2 was analyzed into 1 endpoint. […]
Calls of active or inactive are those of the source. Rule for the calls: active = hit-call score of the fitted dose curve at least 0.9, where 1 is the maximum; inactive = score below 0.9.
Labels: Yes (active), No (inactive)

                                    compound  class_name
 0           Nc1ccc(S(=O)(=O)c2ccc(N)cc2)cc1          No
 1  COCCOC[C@H](CC1(C(=O)NC2CCC(C(=O)O)CC2)CCCC1)C(=O)Oc1ccc2c(c1)CCC2 (some centres not stated)          No
 2            CC(C)(C)c1cc(O)c(C(C)(C)C)cc1O          No
 3  COc1ccc(S(=O)(=O)N2C(=O)[C@@](c3ccccc3OC)(N3C[C@H](O)C[C@H]3C(=O)N(C)C)c3cc(Cl)ccc32)c(OC)c1         Yes
 4                            CCNc1cccc(C)c1          No
 5                          Cc1ccc(N(C)C)cc1          No
 6     CC(C)c1ccc(C(=O)N=C(N)N)cc1S(C)(=O)=O         Yes
 7  FC(F)(F)C(F)(F)C(F)(F)C(F)(F)C(F)(F)C(F)(F)CCI          No
 8                    CC(=O)OCCOCCOCCOC(C)=O          No
 9    OC[C@@H](O)[C@@H](O)[C@H](O)[C@H](O)CO          No
10                   Cc1cc(=O)[nH]c(=S)[nH]1          No
11             CCOc1ccc2c(c1)C(C)=CC(C)(C)N2          No

====

- assay-procedure: CCTE_Shafer_MEA_acute_cross_correlation_HWHM: CCTE's Neural Acute Assay for Cross Correlation at Half Width at Half Maximum, Shafer Lab (AID 2284026);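 also: percent change per well from pre-dose baseline in spike cross-correlogram half width; hits are a decrease in cross-correlogram half width relative to DMSO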
The source made the active and inactive calls. Rule for the calls: active = hit-call score of the fitted dose curve at least 0.9, where 1 is the maximum; inactive = score below 0.9.
Labels: Yes for active, No for inactive

                                 cpd_smiles  class_name
0              C=CCOC(=O)c1ccccc1C(=O)OCC=C          No
1               NCC1(Cc2noc(=O)[nH]2)CCCCC1          No
2                               CCCCCCCCCCO         Yes
3                          O=C(O)CCCCC(=O)O          No
4                   CCCCCCCCCCCCCCCCCC(=O)O          No
5                          Cc1ccc(C)c(O)c1C         Yes
6  C[Si]1(C)O[Si](C)(C)O[Si](C)(C)O[Si](C)(C)O1          No

====

- Read-out: Paternally Expressed 10 (PEG10), PEG10 (gene 23089)
- assay-procedure: LTEA_HepaRG_PEG10: Life Technologies and Expression Analysis (LTEA) Assay for Paternally Expressed 10 (PEG10) using HepaRG (AID 2283520);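 as to AC50: differentiated HepaRG human liver cells in serum-free induction medium with 0.5% DMSO; PEG10 transcript by qRT-PCR normalised to ACTB GAPDH and POLR2A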
- assay-conditions: mRNA level, 48 h; actives raise or lower the signal
Active and inactive are the calls of the source. How the source made its calls: active means hit-call score of the fitted dose curve at least 0.9, where 1 is the maximum; inactive means score below 0.9.
outcome-measure: AC50

In [3]: df
Out[3]:
                                    compound     readout_value
 0  Cc1nc(C)nc(N2C[C@@H](C)N(c3ccnc([C@@H](C)O)n3)[C@@H](C)C2)n1          inactive
 1                                 COCCOCCOC          inactive
 2  CC(=O)C(C)=CC1C(C)=CCCC1(C)C (stereo not given)          inactive
 3             Nc1ccc2c(c1)C(=O)c1ccccc1C2=O  15.5 µM (active)
 4     CC(C)c1ccc(C(=O)N=C(N)N)cc1S(C)(=O)=O          inactive
 5                 CCCc1cc(=O)[nH]c(=S)[nH]1          inactive
 6  COc1cc(S(=O)(=O)O)c(C)cc1N=Nc1c(O)ccc2cc(S(=O)(=O)O)ccc12          inactive
 7                            CCNc1cccc(C)c1          inactive
 8                  Cc1cccc([N+](=O)[O-])c1C          inactive
 9                      Clc1cc(Cl)c(Cl)cc1Cl          inactive
10                   Cc1cc(=O)[nH]c(=S)[nH]1          inactive
11             CCOc1ccc2c(c1)C(C)=CC(C)(C)N2  31.8 µM (active)
12                   O=[N+]([O-])C(CO)(CO)CO          inactive
13                          Cc1ccc(N(C)C)cc1          inactive
14                   O=c1[nH]cc(F)c(=O)[nH]1          inactive
15                       c1cc(-c2ccncc2)ccn1          inactive
16                               CCCCCCCCCCO          inactive
17                Oc1ccc2ccccc2c1N=Nc1ccccc1    19 µM (active)
18  Cc1nc(-c2ccc3c(c2)CCN(CCC2CCC(NC(=O)/C=C/c4ccc(F)cc4)CC2)CC3)no1 (stereo not given)          inactive
19  CCCCc1ccc2c(n1)[C@@H](c1ccc(OC)cc1C[C@H](C)C(=O)O)[C@H](C(=O)O)[C@H]2c1ccc2c(c1)OCO2          inactive
20  NC(=O)Cn1c(=O)cc(CCN2CCN(c3nccc4sccc34)CC2)c2ccc(F)cc21    50 µM (active)
21  CNC(=O)[C@H]1O[C@@H](n2cnc3c(NCc4cc(Cl)ccc4OCc4cc(C)no4)ncnc32)[C@H](O)[C@@H]1N          inactive
22           Nc1ccc(S(=O)(=O)c2ccc(N)cc2)cc1          inactive
23              C=CCOC(=O)c1ccccc1C(=O)OCC=C          inactive
24            CC(C)(C)c1cc(O)c(C(C)(C)C)cc1O  32.5 µM (active)
25  Cc1cc(NC(=O)C(=O)O)cc(C)c1Oc1ccc(O)c2c1CCC2          inactive
26                          CCCCCCCCCCCCCCCC          inactive
27  Cc1c(C(=O)O)c(O)cc2c1C(=O)c1c(O)c([C@@H]3O[C@H](CO)[C@@H](O)[C@H](O)[C@H]3O)c(O)c(O)c1C2=O          inactive
28                 CC(=O)OC/C=C(\C)CCC=C(C)C          inactive
29                               Cc1ccccc1Cl          inactive
30                            CCCCCCCCCCCCCO          inactive
31                        CCOC(=O)CCC(=O)OCC          inactive
32  COc1ccc(S(=O)(=O)N2C(=O)[C@@](c3ccccc3OC)(N3C[C@H](O)C[C@H]3C(=O)N(C)C)c3cc(Cl)ccc32)c(OC)c1  21.5 µM (active)
33  COc1cc(-c2nc(NC(=O)c3cc4cc(C)cc(C)c4n3CC(=O)O)sc2CCC2CCCCC2)c(OC)cc1Cl  11.9 µM (active)
34  C[C@]12C=CC(=O)C=C1CC[C@@H]1[C@@H]2C(=O)C[C@@]2(C)[C@H]1CC[C@]2(O)C(=O)CO          inactive
35                      C1CCC(SSC2CCCCC2)CC1          inactive
36               NCC1(Cc2noc(=O)[nH]2)CCCCC1          inactive
37  CC(CO)OC(C)CO (stereo not given) (tested in a mixture with another compound)          inactive
38                                CN1CCCC1=O          inactive
39                               CCCCCCCCCCC          inactive
40  CN[C@H]1CC[C@@H](c2ccc(Cl)c(Cl)c2)c2ccc(S(N)(=O)=O)cc21          inactive
41        NS(=O)(=O)c1cc2c(cc1Cl)NCNS2(=O)=O          inactive
42  C[Si]1(C)O[Si](C)(C)O[Si](C)(C)O[Si](C)(C)O1          inactive
43                     CC(=O)Oc1ccccc1C(=O)O          inactive
44                        COC(=O)c1ccc(O)cc1          inactive
45  CCCCC(CC)COC(=O)CC(C(=O)OCC(CC)CCCC)S(=O)(=O)O (stereo not given)    89 µM (active)
46  O=c1c(O)c(-c2ccc(O)c(O)c2)oc2cc(O)cc(O)c12          inactive
47  Nc1nc(N)c2nc(CNc3ccc(C(=O)N[C@@H](CCC(=O)O)C(=O)O)cc3)cnc2n1          inactive
48                            COc1ccc(C)cc1N          inactive
49                          O=C(O)CCCCC(=O)O          inactive
